- Test system: DLD-1
- Method Notes: Drug combination screen (ATPlite, Synergy Score), DLD-1
- Assay Context: compound in combination with IgG1-hDR5-01-G56T-E430G + IgG1-hDR5-05-E430G; DLD-1; 120 hour ATPlite, 6x6 matrix
Rule: Synergy Score DLD-1 of 0.6 or more gives true; anything lower gives false.

> print(dat)
                                   compound  assigned.class
1  C[C@]1(O)C[C@@H](c2nc(-c3ccc4ccc(-c5ccccc5)nc4c3)c3c(N)nccn32)C1 [OSI-906]           false
2  Cn1cc(-c2ccc3nnc(C(F)(F)c4ccc5ncccc5c4)n3n2)cn1 [JNJ-38877605]           false
3  Oc1c2ccccc2c2c3c(cccc13)N=N2 [SP 600125]            true
4  CNC(=O)c1cc(Oc2ccc(NC(=O)Nc3ccc(Cl)c(C(F)(F)F)c3)cc2)ccn1 [Sorafenib]            true
